- System: Noggin (protein binding on small-molecule microarray)
- PROTOCOL_DESCRIPTION: small molecules binding Noggin protein – biochemical, 635/667 nm fluorescence, primary screen (AID 1095);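 note: score merges 667 nm feature fluorescence with signal to noise over triplicate slides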
- MEASUREMENT_SETUP: 635 nm fluorescence, higher = more signal
Form field: composite z-score (one value per entry).
OUTCOME_MEASURE: composite z-score

1) COCCOC(=O)N1C(=O)[C@@]2(c3cc(C#CCCO)ccc31)[C@H](C(=O)N1CCc3cc(OC)c(OC)cc3C1)[C@H]1C(=O)O[C@H](c3ccccc3)[C@H](c3ccccc3)N1[C@@H]2c1ccc(OCCO)cc1 = 1.12
2) COCCCNC(=O)[C@@H]1c2ccccc2C(=O)N(Cc2cc(F)cc(C(F)(F)F)c2)[C@H]1c1ccc(CO)cc1 = -0.902
3) CCCCCCCCCCC(O)C1C=CC2C(=O)NC(=O)C2N1Nc1ccccn1 (stereo unspecified) = -0.894
4) COc1ccc(CCNC(=O)[C@@H]2c3ccccc3C(=O)N(Cc3ccccc3C(F)(F)F)[C@H]2c2ccc(CO)cc2)cc1 = -0.185
5) COC(=O)[C@@]1(Cc2ccc(F)cc2)[C@H]2c3cc(C(=O)N(C)C)n(Cc4ccc(C)c(F)c4F)c3C[C@H]2CN1C(=O)c1ccccc1 = -0.724
6) C=CCNC(=O)[C@H]1[C@@H]2C(=O)O[C@@H](c3ccccc3)[C@@H](c3ccccc3)N2[C@@H](c2ccc(O)cc2)[C@]12C(=O)N(C(=O)OCCOC)c1ccc(C#CC3(O)CCCCCC3)cc12 = 0.147

====

- TESTED_ON: E3 ubiquitin-protein ligase XIAP (Homo sapiens) (UniProt P98170)
- Sequence (P98170 whole entry, looked up): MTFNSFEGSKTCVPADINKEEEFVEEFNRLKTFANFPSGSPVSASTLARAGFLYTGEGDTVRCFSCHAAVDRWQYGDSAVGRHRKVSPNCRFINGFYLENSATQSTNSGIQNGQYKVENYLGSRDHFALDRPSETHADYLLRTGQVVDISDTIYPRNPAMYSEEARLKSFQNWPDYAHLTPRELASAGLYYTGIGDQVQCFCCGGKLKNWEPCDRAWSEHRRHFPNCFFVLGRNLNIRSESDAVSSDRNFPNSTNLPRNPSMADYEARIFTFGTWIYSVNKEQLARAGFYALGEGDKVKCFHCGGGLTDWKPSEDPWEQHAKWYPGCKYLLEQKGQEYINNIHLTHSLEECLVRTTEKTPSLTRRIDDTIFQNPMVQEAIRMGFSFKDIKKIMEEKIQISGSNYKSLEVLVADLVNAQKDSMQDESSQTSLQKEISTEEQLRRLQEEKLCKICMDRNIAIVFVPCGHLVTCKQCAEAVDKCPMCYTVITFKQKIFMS
- PROTOCOL_DESCRIPTION: small molecules binding XIAP protein – biophysical, small-molecule microarray, fluorescence 635 nm, primary screen (AID 1181);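 note: score merges 667 nm emission and signal to noise over triplicate slides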
- MEASUREMENT_SETUP: higher = more signal
Form field: composite z-score (one value per entry).
OUTCOME_MEASURE: composite z-score

1. C=CCC(OC(C)=O)[C@@H]1[C@@H](N(Cc2ccc(-c3ccccc3)cc2)C(=O)c2cccc3ccccc23)c2cc(OCCCO)ccc2N1C(=O)c1ccc2ccccc2n1 (stereo partly drawn) = -0.0282
2. C=C(COC)C(=O)CC[C@H](OC(=O)c1ccccc1-c1ccccc1C(=O)O)c1ccc(OCCO)cc1 = 0.0223
3. COc1ccc([Si](C)(C)[C@H]2[C@H](CC(=O)N3CCC[C@H]3CO)O[C@@]3(C(=O)N(Cc4ccc(N5C(=O)c6cccc7cccc5c67)cc4)c4ccccc43)[C@@H]2C)cc1 = -0.392

====

Form field: composite z-score (one value per entry).
- TESTED_ON: Calmodulin-1 (Homo sapiens) (UniProt P0DP23)
- PROTOCOL_DESCRIPTION: small molecules binding Ca-loaded calmodulin-1 – biochemical, small-molecule microarray, Cy5-labelled CALM1, plus calcium, artefact control for SMM control-protein annotation, profiling panel (AID 1112);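 note: score merges spot fluorescence with signal to noise from triplicate slides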
- MEASUREMENT_SETUP: Cy5-CALM1 binding fluorescence, higher = more signal
OUTCOME_MEASURE: composite z-score

1) C[N+](C)(C)CCCCCCNC(=O)[C@@H]1C[C@@H]2C(=O)NCC(=O)N2[C@@H]1c1ccc(O)cc1 = -0.431
2) CC(=O)NCCCC[C@@H]1NC(=O)[C@@H]2C[C@H](C(=O)NCCCC[N+](C)(C)C)[C@H](c3cccc(OCCO)c3)N2C1=O = 0.0189
3) CN(C)C(=O)[C@]1(Cc2ccccc2N=[N+]=[N-])N=C(c2ccc(OCCCO)cc2)O[C@@H]1c1ccccc1CN=[N+]=[N-] = 0.271
4) CCCCC=C[C@@H](NC(=O)CCc1ccccc1)c1ccccc1 = 0.57
5) O=[N+]([O-])c1ccc(C[n+]2ccc(-c3ccc(CO)cc3)cc2)o1 = 0.451
6) C[C@]12C(=O)N(CCCCCO)[C@@H]3C(=O)N(c4ccc(Cl)cc4)CC=CC31O[C@@H]1/C=C\CCCOC(=O)C12 (some centres undefined) = 1.22
7) C=CC[C@@]1(C(=O)NCCN2CCOCC2)N=C(c2ccc(OCCCO)cc2)O[C@@H]1c1ccccc1 = -0.0501
8) COC(=O)[C@]1(Cc2ccccc2CN=[N+]=[N-])N=C(c2ccc(OCCCO)cc2)O[C@@H]1c1ccccc1 = 0.128
9) COCCOC(=O)N1C(=O)[C@@]2(c3cc(C#CCNC(N)=O)ccc31)[C@H](C(N)=O)[C@H]1C(=O)O[C@H](c3ccccc3)[C@H](c3ccccc3)N1[C@@H]2c1ccc(OCCO)cc1 = 0.257
10) COC(=O)[C@@]1(Cc2ccc(F)cc2)[C@H]2c3cc(C(=O)N4CCCC4)n(Cc4ccccc4)c3C[C@H]2CN1C(=O)c1ccccc1 = 0.666
11) COc1cc(NN2C(C(O)c3ccc(I)cc3)C=CC3C(=O)N(C)C(=O)C32)cc(OC)c1OC (centres undefined) = 0.476
12) O=C1O[C@H](c2ccccc2)[C@H](c2ccccc2)N2[C@H]1[C@@H](C(=O)N1CCN(c3ncccn3)CC1)[C@]1(C(=O)Nc3ccc(C#CCCO)cc31)[C@H]2c1ccc(OCCO)cc1 = -0.188
13) C=C(CCCC)/C(=C/C[C@H](OC(=O)c1ccncc1)c1ccc(CO)o1)c1cc(C(=O)OC)ccc1OC = -0.324
14) O=C1O[C@H](c2ccccc2)[C@H](c2ccccc2)N2[C@H]1[C@@H](C(=O)N1CCCCCCC1)[C@]1(C(=O)Nc3ccc(C#CCCO)cc31)[C@H]2c1ccc(OCCO)cc1 = 1.63
15) COCCCNC(=O)[C@]1(CCS(=O)(=O)c2ccccc2)N=C(c2ccc(OCCCO)cc2)O[C@@H]1c1ccccc1 = 0.214
16) COc1ccc([Si](C)(C)[C@@H]2[C@@H](CC(=O)N3Cc4ccccc4C[C@H]3CO)O[C@]3(C(=O)N(Cc4cccc(N5CCCCC5=O)c4)c4ccccc43)[C@H]2C)cc1 = -0.219
17) NC(=O)[C@@H]1[C@H]2C(=O)O[C@H](c3ccccc3)[C@H](c3ccccc3)N2[C@H](c2ccccc2OCCO)[C@@]12C(=O)Nc1ccc(C#CCCO)cc12 = 0.154
18) COc1ccc([Si](C)(C)[C@@H]2[C@@H](CC(=O)N(CCO)Cc3ccccc3)O[C@]3(C(=O)N(C)c4c(Br)cc(C)cc43)[C@H]2C)cc1 = -1.13
19) O=c1c2ccc(Br)cc2nc(-c2ccccc2)n1Cc1cccc(O)c1 = 0.756
20) CC(=O)NCCCC[C@@H]1NC(=O)[C@H]2C[C@@H](C(=O)NCCCCCN)[C@@H](c3cccc(OCCO)c3)N2C1=O = 1.35
21) COCCCNC(=O)[C@@H]1c2ccccc2C(=O)N(Cc2cc(F)cc(C(F)(F)F)c2)[C@H]1c1ccc(CO)cc1 = -0.167
22) CN1C(=O)C2C=CC(C(O)COCc3ccccc3)N(Nc3ccccc3)C2C1=O (centres undefined) = -0.57
23) COC(=O)[C@@]1(Cc2ccccc2)[C@H]2c3cc(C(=O)N(C)C)n(Cc4ccc(O)c(OC)c4)c3C[C@H]2CN1C(=O)c1ccccc1 = 1.17
24) C=CCNC(=O)[C@@H]1[C@H]2C(=O)O[C@H](c3ccccc3)[C@H](c3ccccc3)N2[C@H](c2ccc(O)cc2)[C@@]12C(=O)Nc1ccc(C#CCCO)cc12 = 0.0653
25) O=C1C[C@@](C(=O)NCc2ccccc2)(c2ccc([N+](=O)[O-])cc2)[C@@H](c2ccc(CO)cc2I)N1C1CCCCC1 = 0.315
26) [N-]=[N+]=NCc1ccccc1C[C@@]1(C(=O)NCCN2CCOCC2)N=C(c2ccc(OCCCO)cc2)O[C@@H]1c1ccccc1CN=[N+]=[N-] = 0.191
27) CC(C)=CCCC(C)=CC(O)C1C=CC2C(=O)N(c3ccccc3)C(=O)C2N1Nc1ccc([N+](=O)[O-])cc1 (centres undefined) = 0.512
28) CN(C)C(=O)[C@@]1(CCC(=O)OC(C)(C)C)COC(c2ccc(OCCCO)cc2)=N1 = 0.816
29) CN1C(=O)C2C=CC(C(O)C3CCCCC3)N(N(c3ccccc3)c3ccccc3)C2C1=O (centres undefined) = 0.405
